Numbers sourced from patent US20230227568A1.

Assayed target: T1, cynomolgus 4-1BB on CHO cells (cynomolgus, UniProt A9YYE7 24-254)
T1 construct: also called Flp-In-CHO::cyno4-1BB; cynomolgus 4-1BB-expressing CHO cells
T1 sequence (A9YYE7 entry or part of it limits assumed): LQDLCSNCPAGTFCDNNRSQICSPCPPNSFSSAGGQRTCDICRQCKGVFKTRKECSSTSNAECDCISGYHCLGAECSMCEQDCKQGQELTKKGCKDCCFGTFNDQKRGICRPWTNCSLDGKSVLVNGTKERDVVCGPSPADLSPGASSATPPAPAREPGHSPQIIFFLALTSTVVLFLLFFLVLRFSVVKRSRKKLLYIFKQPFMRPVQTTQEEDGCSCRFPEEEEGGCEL
Method notes: flow cytometry, Flp-In-CHO::cyno4-1BB cells
pEC50: −log10 of the molar value.
Parameter: pEC50

>>> experimental_result("multimeric protein SEQ ID NO: 47 (designed binder) QDSTSDLIPAPPLSKVPLQQNFQDNQFHGKWYVVGQAGNIRLREDKDPIKMMATIYELKEDKSYDVTMVKFDDKKCMYDIWTFVPGSQPGEFTLGKIKSFPGHTSSLVRVVSTNYNQHAMVFFKFVFQNREEFYITLYGRTKELTSELKENFIRFSKSLGLPENHIVFPVPIDQCIDGGGGGSGGGGSGGGGSKPLDGEYFTLQIRGRERFEMFRELNEALELKDAQAGKEPGGSGGAPEQKLISEEDLGSHHHHHHHHHH")
8.42
>>> experimental_result("multimeric protein SEQ ID NO: 41 (designed binder) QDSTSDLIPAPPLSKVPLQQNFQDNQFHGKWYVVGQAGNIRLREDKDPIKMMATIYELKEDKSYDVTMVKFDDKKCMYDIWTFVPGSQPGEFTLGKIKSFPGHTSSLVRVVSTNYNQHAMVFFKFVFQNREEFYITLYGRTKELTSELKENFIRFSKSLGLPENHIVFPVPIDQCIDGGSPTPTPTTPTPTPTGVRLWATRQAMLGQVHEVPEGWLIFVAEQEELYVRVQNGFRKVQLEARTPLGGSGGAPEQKLISEEDLGSHHHHHHHHHH")
8.25
>>> experimental_result("multimeric protein SEQ ID NO: 38 (designed binder, Trivalent; Self-assembled from its monomer polypeptides) QDSTSDLIPAPPLSKVPLQQNFQDNQFHGKWYVVGQAGNIRLREDKDPIKMMATIYELKEDKSYDVTMVKFDDKKCMYDIWTFVPGSQPGEFTLGKIKSFPGHTSSLVRVVSTNYNQHAMVFFKFVFQNREEFYITLYGRTKELTSELKENFIRFSKSLGLPENHIVFPVPIDQCIDGGGGGSGGGGSGGGGSGVRLWATRQAMLGQVHEVPEGWLIFVAEQEELYVRVQNGFRKVQLEARTPLGGSGGAPEQKLISEEDLGSHHHHHHHHHH")
8.23
>>> experimental_result("multimeric protein SEQ ID NO: 44 (designed binder) GVRLWATRQAMLGQVHEVPEGWLIFVAEQEELYVRVQNGFRKVQLEARTPLGGGGSQDSTSDLIPAPPLSKVPLQQNFQDNQFHGKWYVVGQAGNIRLREDKDPIKMMATIYELKEDKSYDVTMVKFDDKKCMYDIWTFVPGSQPGEFTLGKIKSFPGHTSSLVRVVSTNYNQHAMVFFKFVFQNREEFYITLYGRTKELTSELKENFIRFSKSLGLPENHIVFPVPIDQCIDGGGSGGAPEQKLISEEDLGSHHHHHHHHHH")
8.30
>>> experimental_result("multimeric protein SEQ ID NO: 39 (designed binder) QDSTSDLIPAPPLSKVPLQQNFQDNQFHGKWYVVGQAGNIRLREDKDPIKMMATIYELKEDKSYDVTMVKFDDKKCMYDIWTFVPGSQPGEFTLGKIKSFPGHTSSLVRVVSTNYNQHAMVFFKFVFQNREEFYITLYGRTKELTSELKENFIRFSKSLGLPENHIVFPVPIDQCIDGGGGGSGVRLWATRQAMLGQVHEVPEGWLIFVAEQEELYVRVQNGFRKVQLEARTPLGGSGGAPEQKLISEEDLGSHHHHHHHHHH")
8.43
>>> experimental_result("multimeric protein SEQ ID NO: 42 (designed binder) QDSTSDLIPAPPLSKVPLQQNFQDNQFHGKWYVVGQAGNIRLREDKDPIKMMATIYELKEDKSYDVTMVKFDDKKCMYDIWTFVPGSQPGEFTLGKIKSFPGHTSSLVRVVSTNYNQHAMVFFKFVFQNREEFYITLYGRTKELTSELKENFIRFSKSLGLPENHIVFPVPIDQCIDGAEAAAKEAAAKEAAAKAGVRLWATRQAMLGQVHEVPEGWLIFVAEQEELYVRVQNGFRKVQLEARTPLGGSGGAPEQKLISEEDLGSHHHHHHHHHH")
8.18
